Listed here are compounds together with their documented IC50.
target_of_assay: Protein Tat (Human immunodeficiency virus type 1 group M subtype B (isolate HXB2))
test_summary: inhibitors of Tat binding to TAR RNA, dose response, counter-screen for Vif-APOBEC3G degradation inhibitor project, biochemical, fluorescence polarization, FAM-labeled TAR RNA (AID 1117361)
assay_endpoint: IC50

- compound: "O=S(=O)(O)c1cc(Cl)cc(N=Nc2ccc(O)cc2O)c1O"
  assay_endpoint: "IC50"
  result: "22.5 µM"
- compound: "Cc1n[nH]c(=S)n(NC(=O)/C=C/C(=O)Nn2c(=S)[nH]nc(C)c2=O)c1=O"
  assay_endpoint: "IC50"
  result: "18.2 µM"
- compound: "CCOc1ccc(N(CC(=O)NC(C)(C)C)S(=O)(=O)c2c(C)noc2C)cc1"
  assay_endpoint: "IC50"
  result: "5.37 µM"
- compound: "CCc1nc2oc3cc(OC)ccc3c(=O)c2c(=O)n1Cc1ccco1"
  assay_endpoint: "IC50"
  result: "24 µM"
- compound: "O=c1nc2s/c(=C\\c3ccco3)c(=O)n2nc1Cc1ccccc1"
  assay_endpoint: "IC50"
  result: "5.21 µM"
- compound: "O=C(NN1C(=O)/C(=C/C=C/c2ccco2)SC1=S)c1ccccc1O"
  assay_endpoint: "IC50"
  result: "4.46 µM"
- compound: "COCCNC(=O)Nc1ccc2nc(-c3ccco3)c(-c3ccco3)nc2c1"
  assay_endpoint: "IC50"
  result: "2.17 µM"
- compound: "COc1ccc(-n2c(C)cc(C(=O)CSc3nn4c(=O)c(C(C)(C)C)nnc4s3)c2C)cc1"
  assay_endpoint: "IC50"
  result: "62.7 µM"
- compound: "COC(=O)c1ccc(C(=O)OC)c(NC(=O)Cc2cccs2)c1"
  assay_endpoint: "IC50"
  result: "64.8 µM"
- compound: "COc1cccc(N2C(=O)NC(=O)/C(=C/c3ccc([N+](=O)[O-])s3)C2=O)c1"
  assay_endpoint: "IC50"
  result: "34.3 µM"
- compound: "O=C(NCCO)Nc1ccc2nc(-c3ccco3)c(-c3ccco3)nc2c1"
  assay_endpoint: "IC50"
  result: "1.76 µM"
- compound: "COc1ccc(/C=N/NC(=O)c2cc(O)c(O)c(O)c2)cc1Cn1cc([N+](=O)[O-])cn1"
  assay_endpoint: "IC50"
  result: "46.7 µM"
- compound: "O=C(OCC1O[C@@H](OC(=O)c2cc(O)c(O)c(O)c2)[C@@H](OC(=O)c2cc(O)c(O)c(O)c2)[C@@H](OC(=O)c2cc(O)c(O)c(O)c2)[C@@H]1OC(=O)c1cc(O)c(O)c(O)c1)c1cc(O)c(O)c(O)c1 (some centres undefined)"
  assay_endpoint: "IC50"
  result: "25.4 µM"
- compound: "CCN1C[C@@H]2[C@@H]3C(=O)N(Cc4ccccc4)C(=O)[C@@H]3[C@](C)(C(=O)OC)N2C1=NC1CCCCC1"
  assay_endpoint: "IC50"
  result: "79.8 µM"
